# assayed_target: DYNLL1 1-89 Dynein_light (domain begin residue: 1, domain end residue: 89), P63167
# Sequence (P63167 whole entry): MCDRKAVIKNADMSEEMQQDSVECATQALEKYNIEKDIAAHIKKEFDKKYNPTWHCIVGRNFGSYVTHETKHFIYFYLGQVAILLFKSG
# run_description: phage ELISA signal ratio (GST-PRM binding over GST background); higher = stronger binding of peptide-phage to the PRM
Criterion: phage ELISA signal ratio meeting or surpassing 20. Met: y. Not met: n.

[[record]]
binder = "TQTLAWDWYYEFPEMI"
group_label = "y"

[[record]]
binder = "SQTEWDWLEREWKPSI"
group_label = "n"

[[record]]
binder = "TQTGESEMYFWNHMPK"
group_label = "y"

[[record]]
binder = "SPTEWVWNWGENAQML"
group_label = "y"

[[record]]
binder = "TQTEFYASDWWMMENV"
group_label = "n"

[[record]]
binder = "KDFGTQVDFDILHEEE"
group_label = "y"


Textbook exercise: given the entry TQTGMWDETDSREHWD , state whether its phage ELISA signal ratio is greater than or equal to 20. n

meta.source: the supplement of paper PMC7724964
